- procedure summary: APR_HepG2_CellLoss_24hr: Apredica 24-hour HepG2 Assay for Cell Loss (AID 2282908)
- conditions: high-content imaging
Calls of active or inactive are those of the source. The calls were made as follows: active = hit-call score of the fitted dose curve at least 0.9, where 1 is the maximum; inactive = score below 0.9.
Hi! Could you answer with just one of these? active, inactive

Reference set (3 entries):
> print(dat)
                                   compound     class
1  COc1nc(C)nc(NC(=O)NS(=O)(=O)c2ccccc2Cl)n1  inactive
2         COP(N)(=O)SC (stereo unspecified)  inactive
3  CC(C)(C)c1ccc(CSc2cnn(C(C)(C)C)c(=O)c2Cl)cc1    active

Challenge: What classification did "CCOc1cc(Oc2ccc(C(F)(F)F)cc2Cl)ccc1[N+](=O)[O-]" end up with in this test?
Response given: inactive

Challenge: What classification did "CNC(=S)S" end up with in this test?
Response given: active

Challenge: What classification did Cc1c(F)c(F)c(COC(=O)C2C(/C=C(\Cl)C(F)(F)F)C2(C)C)c(F)c1F (stereo unspecified) end up with in this test?
Response given: inactive
